# targetEntity: T1, human PVRIG-mFc protein (Acro, PVG-H5253) (human, UniProt Q6DKI7 41-171, limits assumed)
# T1 construct: bought protein
# T1 sequence (looked up): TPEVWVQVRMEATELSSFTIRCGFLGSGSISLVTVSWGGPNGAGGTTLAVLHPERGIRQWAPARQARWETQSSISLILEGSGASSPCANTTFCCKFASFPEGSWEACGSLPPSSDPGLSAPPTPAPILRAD
# assayName: FACS competition, PVRIG-mFc binding to CHO-K1-CD112 cells, competitor CD112 on cells
quantity: % IC50 to SRF813-hIgG1 (%)
Only the number, expressed in %, is required.

Entry under review: PVRIG-A75 (Fc fusion, heavy chain antibody VHH-hinge-CH2-CH3, human IgG1 constant part; not shown: human IgG1 hinge-CH2-CH3) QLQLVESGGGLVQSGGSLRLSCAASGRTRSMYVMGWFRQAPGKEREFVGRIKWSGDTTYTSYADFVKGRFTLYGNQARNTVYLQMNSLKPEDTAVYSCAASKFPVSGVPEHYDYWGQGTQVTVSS . Reported % IC50 to SRF813-hIgG1? 93.7

Entry under review: PVRIG-A11 (Fc fusion, heavy chain antibody VHH-hinge-CH2-CH3, human IgG1 constant part; not shown: human IgG1 hinge-CH2-CH3) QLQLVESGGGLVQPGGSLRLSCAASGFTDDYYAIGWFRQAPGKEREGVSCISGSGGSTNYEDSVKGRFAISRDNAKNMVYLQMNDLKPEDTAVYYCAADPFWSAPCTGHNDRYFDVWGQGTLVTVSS . Reported % IC50 to SRF813-hIgG1? 64.1
